# Tested on: UO-31 renal
# PROTOCOL DETAILS: NCI-60 one-dose screen, 48 h (100 = growth as untreated, 0 = no growth, -100 = all killed)
# CONDITION SET: 10 µM unless noted
Compounds without any hit were thinned out: in the full panel of roughly 83,000, 20% have a hit.
OBSERVATION TYPE: growth (%)
Give bare numbers, in %.

[
  {
    "MOLECULE": "CN1CCN(CC(=O)N(C)c2ccc(N=C(c3ccccc3)c3c(O)[nH]c4ccc(C#N)cc34)cc2)CC1",
    "STUDY SYSTEM": "UO-31 renal",
    "growth, %": 23.9
  },
  {
    "MOLECULE": "C=C1C(=O)O[C@H]2[C@H]1CC/C(CNC(=O)/C1=C/CC[C@@]3(C)O[C@H]3[C@H]3OC(=O)C(=C)[C@@H]3CC1)=C\\CC[C@@]1(C)O[C@@H]21",
    "STUDY SYSTEM": "UO-31 renal",
    "growth, %": 95.5
  },
  {
    "MOLECULE": "O=C(O)c1cccc(S(=O)(=O)c2ccccc2)c1",
    "STUDY SYSTEM": "UO-31 renal",
    "growth, %": 96.1
  },
  {
    "MOLECULE": "COc1ccc(/C=C2\\CS(=O)(=O)C/C(=C\\c3ccc(OC)cc3)C2=O)cc1",
    "STUDY SYSTEM": "UO-31 renal",
    "growth, %": -100
  },
  {
    "MOLECULE": "O=C(Nc1ccc(-n2ccc3c(NC(=O)c4ccccc4)nccc32)cc1)c1ccc(Cl)c(C(F)(F)F)c1",
    "STUDY SYSTEM": "UO-31 renal",
    "growth, %": 36.6
  },
  {
    "MOLECULE": "O=C(Nc1ccc(Cl)c(Cl)c1)Nc1ccc(Cl)c([N+](=O)[O-])c1",
    "STUDY SYSTEM": "UO-31 renal",
    "growth, %": 0.279
  },
  {
    "MOLECULE": "Cl[C@@H]1CCO[C@H](c2cc3ccccc3c3ccccc23)C1",
    "STUDY SYSTEM": "UO-31 renal",
    "growth, %": 89.2
  },
  {
    "MOLECULE": "CCOC(=O)c1cnc2c(OC)ccc(OC)c2c1Cl",
    "STUDY SYSTEM": "UO-31 renal",
    "growth, %": 88.3
  }
]

Look up growth for the entries below, preserving their order.
1. C=CC(=O)Nc1cccc(Nc2nc(Nc3ccc(OCCOC(F)F)cc3)ncc2F)c1
2. C#CC(=O)/C=C/CCCCCCC#CC(=O)CCC(=O)C#CCCCCCC/C=C/C(=O)C#C
3. CCNc1ncnc2n[nH]nc12

[6.93, -90.7, 98.4]
